The reported numbers originate from ChEMBL document CHEMBL1157813.

IC50 for assorted compounds
assay_target: Translocator protein (Rattus norvegicus)
Sequence (P16257 whole entry, looked up): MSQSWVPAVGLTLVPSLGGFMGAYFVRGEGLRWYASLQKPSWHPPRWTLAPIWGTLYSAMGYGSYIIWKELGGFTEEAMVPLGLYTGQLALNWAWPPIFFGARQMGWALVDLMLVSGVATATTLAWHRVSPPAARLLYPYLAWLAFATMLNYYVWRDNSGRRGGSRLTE
assay_overview: Displacement of [3H]Ro5-4864 from TSPO in rat kidney mitochondrial membrane

| smiles_input | IC50 [nM] |
| --- | --- |
| O=C(NCCCCCCNc1ccc([N+](=O)[O-])c2nonc12)C(=O)c1c(-c2ccccc2)[nH]c2ccc(N=C=S)cc12 | 42.2 |
| CCCCCCN(CCCCCC)C(=O)C(=O)c1c(-c2ccccc2)[nH]c2ccc(N=C=S)cc12 | 59.7 |
| CCCN(CCC)C(=O)C(=O)c1c(-c2ccccc2)[nH]c2ccc(N=C=S)cc12 | 45.6 |
